System: HCC 2998
Test: NCI tumour cell line growth inhibition, 48 h
The source made the active and inactive calls. Cut-off read from the data, not from the text of the source: active = GI50 up to about 1.1 µM and inactive = higher.
For each record, write down the corresponding GI50.

> print(dat)
                                   molecule  value.kind           assay.value
1            CC(=O)/C(=N\O)C(=O)NCCc1ccccc1        GI50    66.5 µM (inactive)
2                  NCCN(CCN)/[N+]([O-])=N/O        GI50   > 100 µM (inactive)
3  Cc1ccc(S(=O)(=O)N2CCCN(S(=O)(=O)c3ccc(C)cc3)CCN(S(=O)(=O)c3ccc(C)cc3)CCCSCC2)cc1        GI50   > 100 µM (inactive)
4  Cn1c2ccccc2c2c(-c3ccccc3)cc3c(c21)C(=O)C=CC3=O        GI50  > 4.88 µM (inactive)
5    C#Cc1c(C)c(/C=C/C(C)=C\C(=O)OC)n(C)c1C        GI50   > 100 µM (inactive)
6            CCC(=O)NCCc1c[nH]c2ccc(OC)cc12        GI50   > 100 µM (inactive)

Would you mind listing GI50 for each of the following molecules?
1. O=C(/N=N/C(=O)OCc1ccccc1)OCc1ccccc1
2. N#C/C(=C\c1ccc(O)cc1O)C(N)=O
3. CN(C(=O)Cc1ccccc1)n1cnn(CC(=O)OC(C)(C)C)c1=S
4. CC(C)(C)c1ccc(O)c(C(O)c2cccnc2)c1 (stereo unspecified)
5. Cc1ccc(C2=Nc3c(N)nc(N)nc3NC(c3ccccc3)C2)cc1 (stereo unspecified)

1: > 100 µM (inactive); 2: > 100 µM (inactive); 3: > 10 µM (inactive); 4: 76 µM (inactive); 5: 7.41 µM (inactive)

---

System: SF-268
Assay: NCI tumour cell line growth inhibition, 48 h
Activity calls are given as the source filed them. Rule as the data show it: active = GI50 up to about 1.1 µM and inactive = higher.
Value Kind: GI50

Compound	Assay Value
Cc1cc(C)n(-c2nc(-n3nc(C)cc3C)nc(-n3nc(C)cc3C)n2)n1	> 100 µM (inactive)
O=C(c1ccccc1)n1cc(/C=C/[N+](=O)[O-])c2ccccc21	23.1 µM (inactive)
Cc1cc(C(C)C)cc(=O)c(O)c1	> 100 µM (inactive)
CC(C)(C)c1ccc(O)c(C(O)c2cccnc2)c1 (stereo not given)	> 100 µM (inactive)
CC(=O)OCC1OC(Sc2nc(-c3ccc(C)cc3)c(C#N)c(=O)n2C2OC(COC(C)=O)C(OC(C)=O)C(OC(C)=O)C2OC(C)=O)C(OC(C)=O)C(OC(C)=O)C1OC(C)=O (stereo not given)	> 100 µM (inactive)
NNC(=S)N/N=C(/C(=O)Nc1ccc([N+](=O)[O-])cc1)c1nc2ccc([N+](=O)[O-])cc2nc1O	> 100 µM (inactive)
CN1COc2c(n(C)c(=O)[nH]c2=O)C1	> 100 µM (inactive)
Cc1nc(Nc2ccc(Cl)cc2)sc1C(=O)Nc1cccc2c(=O)[nH][nH]c(=O)c12	31.8 µM (inactive)
CCc1cc2c(cc1O)CC[C@@H]1[C@@H]2CC[C@]2(C)[C@@H](O)CC[C@@H]12	6.41 µM (inactive)

Now turn to the next compound.
What GI50 value was documented for this compound, c1ccc2c(c1)cc1n2CC2CN=NC12 (stereo not given) ?
> 100 µM (inactive)
